# target-or-system: HLA-A*02:06
# test-protocol: IEDB peptide-MHC binding, purified MHC/competitive/radioactivity; filed as Kd, often an IC50 or EC50 that approximates it; bounds were set here for any values at or beyond the usual limits of such assays
# test-settings: source organism: Dengue virus 2 Peru/IQT2913/1996
recorded-metric: pKd
Units for pKd: none; it is -log10 of a concentration expressed in mol/L.

Request the reported pKd associated with LVISGLFPV
9.44

----------
# target-or-system: HLA-A*02:01
# test-protocol: IEDB peptide-MHC binding, purified MHC/competitive/fluorescence; filed as Kd, often an IC50 or EC50 that approximates it; bounds were set here for any values at or beyond the usual limits of such assays
# test-settings: source organism: Human immunodeficiency virus 1
recorded-metric: pKd
Quick note: pKd means taking -log10 of the concentration in moles per liter.

Look up pKd: LNTVATLY
7.25

----------
# target-or-system: HLA-A*01:01
# test-protocol: IEDB peptide-MHC binding, purified MHC/competitive/radioactivity; filed as Kd, often an IC50 or EC50 that approximates it; bounds were set here for any values at or beyond the usual limits of such assays
# test-settings: source organism: SARS coronavirus Tor2
Below is a list of entries, each paired with its recorded pKd value.
Remember the convention: pKd equals -log10 of concentration in molar.

DSFKEELDKY 6.12

Requested read-out pKd, target or system HLA-A*01:01, entry GMEAQFLYLY
6.74

Can you look up pKd on HLA-A*01:01 for QWSLFFFVY ?
5.09

Can you look up pKd on HLA-A*01:01 for LYNSTFFSTF ?
4.99

I'm curious: which pKd was measured for NIDATSTGNY tested on HLA-A*01:01?
6.96

Lab request: please report pKd under test system HLA-A*01:01 for HISRQRLTKY
4.92

Requested read-out pKd, target or system HLA-A*01:01, entry MEAQFLYLY
5.80

----------
# target-or-system: HLA-A*02:03
# test-protocol: IEDB peptide-MHC binding, purified MHC/direct/fluorescence; filed as Kd, often an IC50 or EC50 that approximates it; bounds were set here for any values at or beyond the usual limits of such assays
# test-settings: source organism: Araucaria virus
recorded-metric: Kd

Kd for WKAIGAYIL ?
≥ 20 µM

----------
# target-or-system: HLA-B*58:01
# test-protocol: IEDB peptide-MHC binding, purified MHC/direct/fluorescence; filed as Kd, often an IC50 or EC50 that approximates it; bounds were set here for any values at or beyond the usual limits of such assays
# test-settings: source organism: Escherichia coli
pKd: −log10 of the molar value.
recorded-metric: pKd

LMQWWSDYV ≤ 4.70

Now turn to the next sequence.
Which pKd is reported for this sequence? NMERKLNLS
≤ 4.70

----------
# target-or-system: HLA-C*07:02
# test-protocol: IEDB peptide-MHC binding, purified MHC/direct/fluorescence; filed as Kd, often an IC50 or EC50 that approximates it; bounds were set here for any values at or beyond the usual limits of such assays
# test-settings: source organism: Methylibium petroleiphilum PM1
recorded-metric: pKd
By convention, pKd is the negative base-10 log of a molar concentration.

State the recorded pKd for this entry: FQMGGIGPM
6.35

----------
# target-or-system: HLA-A*02:01
# test-protocol: IEDB peptide-MHC binding, purified MHC/direct/fluorescence; filed as Kd, often an IC50 or EC50 that approximates it; bounds were set here for any values at or beyond the usual limits of such assays
# test-settings: source organism: Haemophilus influenzae
recorded-metric: Kd (µM)
Number only, in µM; omit the unit.

State the recorded Kd for this entry: ILYDTGSSW
10.2

----------
# target-or-system: HLA-B*57:01
# test-protocol: IEDB peptide-MHC binding, purified MHC/competitive/fluorescence; filed as Kd, often an IC50 or EC50 that approximates it; bounds were set here for any values at or beyond the usual limits of such assays
# test-settings: source organism: Vibrio vulnificus YJ016
recorded-metric: Kd

What measured Kd is associated with GMWCVLASR on HLA-B*57:01?
≥ 20 µM

----------
# target-or-system: HLA-B*15:17
# test-protocol: IEDB peptide-MHC binding, purified MHC/competitive/fluorescence; filed as Kd, often an IC50 or EC50 that approximates it; bounds were set here for any values at or beyond the usual limits of such assays
# test-settings: source organism: Choclo virus
pKd: −log10 of the molar value.
recorded-metric: pKd

What value of measured pKd is listed for HWMDATFNI ?
≤ 4.70

----------
# target-or-system: HLA-B*57:01
# test-protocol: IEDB peptide-MHC binding, purified MHC/competitive/fluorescence; filed as Kd, often an IC50 or EC50 that approximates it; bounds were set here for any values at or beyond the usual limits of such assays
# test-settings: source organism: Escherichia coli E22
pKd: −log10 of the molar value.
recorded-metric: pKd

Item under review: YQTYVSPGA . Reported pKd?
≤ 4.70

----------
# target-or-system: HLA-B*46:01
# test-protocol: IEDB peptide-MHC binding, purified MHC/direct/fluorescence; filed as Kd, often an IC50 or EC50 that approximates it; bounds were set here for any values at or beyond the usual limits of such assays
# test-settings: source organism: Yersinia pestis Antiqua
recorded-metric: pKd
Schema: pKd number; meaning minus log10 of the concentration expressed in molar units.

Any idea what pKd was measured for FQLYSDLAH ?
5.64

----------
# target-or-system: HLA-A*24:03
# test-protocol: IEDB peptide-MHC binding, purified MHC/direct/fluorescence; filed as Kd, often an IC50 or EC50 that approximates it; bounds were set here for any values at or beyond the usual limits of such assays
# test-settings: source organism: Araucaria virus
recorded-metric: Kd

Endpoint output: Kd of WKAIGAYIL . Value?
≥ 20 µM

----------
# target-or-system: HLA-B*58:01
# test-protocol: IEDB peptide-MHC binding, purified MHC/direct/fluorescence; filed as Kd, often an IC50 or EC50 that approximates it; bounds were set here for any values at or beyond the usual limits of such assays
# test-settings: source organism: Yersinia pestis Antiqua
pKd: −log10 of the molar value.
recorded-metric: pKd

Identify the measured pKd of FQLYSDLAH for HLA-B*58:01.
≤ 4.70

----------
# target-or-system: HLA-B*40:01
# test-protocol: IEDB peptide-MHC binding, purified MHC/direct/fluorescence; filed as Kd, often an IC50 or EC50 that approximates it; bounds were set here for any values at or beyond the usual limits of such assays
# test-settings: source organism: Bacillus anthracis
recorded-metric: Kd

Looking for the measured Kd of DTVLFNAGL , can you help?
≥ 20 µM

----------
# target-or-system: HLA-C*06:02
# test-protocol: IEDB peptide-MHC binding, purified MHC/direct/fluorescence; filed as Kd, often an IC50 or EC50 that approximates it; bounds were set here for any values at or beyond the usual limits of such assays
# test-settings: source organism: Entamoeba histolytica HM-1:IMSS
recorded-metric: Kd (nM)
Please give a number only; it is taken to be in nM.

Find the measured Kd: item SMFERDFHF , target or system HLA-C*06:02.
1720

----------
# target-or-system: HLA-A*02:02
# test-protocol: IEDB peptide-MHC binding, purified MHC/competitive/radioactivity; filed as Kd, often an IC50 or EC50 that approximates it; bounds were set here for any values at or beyond the usual limits of such assays
# test-settings: source organism: Lassa virus GA391
recorded-metric: pKd
Please report pKd as the negative decimal logarithm of the molar concentration, giving only the number.

Consider the sequence shown here: NISGYNFSL What is its recorded pKd?
7.14

----------
# target-or-system: HLA-A*33:01
# test-protocol: IEDB peptide-MHC binding, purified MHC/competitive/radioactivity; filed as Kd, often an IC50 or EC50 that approximates it; bounds were set here for any values at or beyond the usual limits of such assays
# test-settings: source organism: Mammarenavirus whitewaterense
recorded-metric: Kd

Record excerpt, results attached:
SRIFEELVWK ≥ 52 µM
KIGHHVELQH ≥ 49.8 µM

Quick one: Kd of TAIAKCNLDH ?
≥ 34.2 µM

Find the recorded Kd belonging to SCSYKIGHH and report it.
≥ 77.7 µM

----------
# target-or-system: HLA-B*44:02
# test-protocol: IEDB peptide-MHC binding, purified MHC/direct/fluorescence; filed as Kd, often an IC50 or EC50 that approximates it; bounds were set here for any values at or beyond the usual limits of such assays
# test-settings: source organism: Mammarenavirus juninense
recorded-metric: Kd

YAKKFKTGM ≥ 20 µM

Consider the sequence shown here: GKLDPTNTL What is its recorded Kd?
≥ 20 µM

----------
# target-or-system: HLA-A*02:02
# test-protocol: IEDB peptide-MHC binding, purified MHC/competitive/radioactivity; filed as Kd, often an IC50 or EC50 that approximates it; bounds were set here for any values at or beyond the usual limits of such assays
# test-settings: source organism: SARS coronavirus Tor2
pKd: −log10 of the molar value.
Output rule met for pKd not less than 8; output rule not met otherwise.

Examples from the recorded data:
YASALVLLI rule met
LLFLVLIML rule not met
NLWNTFTRL rule not met

I'd appreciate it if you could say whether KIILFLTLI has pKd at least equal to 8.
rule not met

Check if pKd >= 8 (inclusive). Item: FLIVAALVFL
rule met

I'd appreciate it if you could say whether FTYASALWEI has pKd at least equal to 8.
rule met

Determine whether measured pKd meets or exceeds 8 for FLITGVFDI
rule met
